Kindly supply the reported protein stability index values for the records listed here.
B1: PLAGL1 (parent)
chain: DPNKMAFGCEECGKKYNTMLGYKR

Variants of: B1
testDetails: protein stability index of a GFP-peptide fusion (GPS, HEK-293T) (PSI 1-6); higher = more stable;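 further: lentivirally expressed fusions sorted by FACS into six bins by GFP to DsRed ratio, PSI derived from sequencing read proportions per bin multiplied by bin number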
measurementSetup: c terminus: a fixed tail appended
Form field (numeric): enter value without unit.

Query block: Give the measured protein stability index of `G8V` .
Result block: 2.92

Query block: Give the measured protein stability index of `E11C` .
Result block: 1.44

Query block: Give the measured protein stability index of `A6S` .
Result block: 2.33

Query block: Give the measured protein stability index of `A6R` .
Result block: 2.19

Query block: Give the measured protein stability index of `K15A` .
Result block: 2.73

Query block: Give the measured protein stability index of `Y16V` .
Result block: 2.73

Query block: Give the measured protein stability index of `M5F` .
Result block: 2.15

Query block: Give the measured protein stability index of `N3Y` .
Result block: 2.14

Query block: Give the measured protein stability index of `D1L` .
Result block: 2.34

Query block: Give the measured protein stability index of `F7R` .
Result block: 1.92
